# Experimental Details: chemical genetic growth profiling, strain panel (AID 1159580);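 further: tested at 20 µM; growth read once vehicle control cultures reached saturation at 30 °C; 1 = growth at the plate median or of vehicle wells; lower values mean less growth of the strain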
# Experimental Parameters: S. cerevisiae deletion strains, growth OD, locus YAL013W, strain DEP1, stronger effect = lower value
The whole screen tested about 5,500 compounds, of which about 2,000 (36%) were called active. Roughly 18% stayed inconclusive and do not appear here. This is one part of the list.
Parameter normalized growth: see the listing below.
Measure: normalized growth

[[record]]
compound = "Cc1ccc(CC(=O)O)cc1"
measure = "normalized growth"
quantitative_readout = 0.973

[[record]]
compound = "Cc1cccc2c1N(C(=S)Nc1ccccc1Cl)CCC2"
measure = "normalized growth"
quantitative_readout = 0.966

[[record]]
compound = "COc1ccc(C(C)=O)cc1CSC(=NS(=O)(=O)c1ccccc1)Nc1cccc(F)c1"
measure = "normalized growth"
quantitative_readout = 1.01

[[record]]
compound = "C#CCCCCCCCCCCCC(O)CC(O)COC(C)=O (configuration not stated)"
measure = "normalized growth"
quantitative_readout = 0.98

[[record]]
compound = "O=C(O)CN1C(=O)c2cccc3cccc(c23)C1=O"
measure = "normalized growth"
quantitative_readout = 1

[[record]]
compound = "Oc1ccc(Cl)cc1"
measure = "normalized growth"
quantitative_readout = 0.992

[[record]]
compound = "COC(=O)c1c(-c2c(Cl)cccc2Cl)noc1NC(=O)NN1CCCCC1"
measure = "normalized growth"
quantitative_readout = 1.02

[[record]]
compound = "COc1ccccc1N=C(N)SCc1ccccc1"
measure = "normalized growth"
quantitative_readout = 1.01

[[record]]
compound = "COc1cc([C@@H]2c3cc4c(c(O)c3C[C@H]3COC(=O)[C@@H]32)OCO4)cc(OC)c1OC"
measure = "normalized growth"
quantitative_readout = 0.986

[[record]]
compound = "CSC(=NS(=O)(=O)c1ccccc1)SC"
measure = "normalized growth"
quantitative_readout = 0.985

[[record]]
compound = "N#Cc1ncc(C(F)(F)F)cc1Oc1ccc(Cl)cc1"
measure = "normalized growth"
quantitative_readout = 0.921

[[record]]
compound = "C=CCSCC1Nc2cc(Cl)c(S(N)(=O)=O)cc2S(=O)(=O)N1 (configuration not stated)"
measure = "normalized growth"
quantitative_readout = 1.01

[[record]]
compound = "O=C(O)c1cc2cc(Cc3cccnc3)ccc2o1"
measure = "normalized growth"
quantitative_readout = 1.02

[[record]]
compound = "CCCN(CCC)C1CCc2cccc(O)c2C1 (configuration not stated)"
measure = "normalized growth"
quantitative_readout = 1

[[record]]
compound = "CC(=O)OCC[C@H](C)CCC=C(C)C"
measure = "normalized growth"
quantitative_readout = 1

[[record]]
compound = "CC(C)C(=O)Nc1ccc([N+](=O)[O-])c(C(F)(F)F)c1"
measure = "normalized growth"
quantitative_readout = 0.995

[[record]]
compound = "Cc1onc(-c2c(F)cccc2Cl)c1C(=O)Oc1ccccc1"
measure = "normalized growth"
quantitative_readout = 0.964

[[record]]
compound = "C[Se]C[C@H](N)C(=O)O"
measure = "normalized growth"
quantitative_readout = 0.981

[[record]]
compound = "N#C/C(=C\\c1cccn1-c1ccc(OC(F)(F)F)cc1)S(=O)(=O)c1ccccc1"
measure = "normalized growth"
quantitative_readout = 1.05

[[record]]
compound = "CSC(=NC#N)N1CCN(c2ccc([N+](=O)[O-])cn2)CC1"
measure = "normalized growth"
quantitative_readout = 0.997

[[record]]
compound = "N#Cc1c(N)oc(-c2ccco2)c1-c1ccco1"
measure = "normalized growth"
quantitative_readout = 0.893

[[record]]
compound = "CCOC(=O)Nc1ccsc1C(=O)OC"
measure = "normalized growth"
quantitative_readout = 0.997

[[record]]
compound = "N#Cc1c(F)cccc1Oc1ccc(F)cc1"
measure = "normalized growth"
quantitative_readout = 0.999

[[record]]
compound = "O=C1CCC(c2cccs2)=NN1"
measure = "normalized growth"
quantitative_readout = 0.979

[[record]]
compound = "CC(C)COCC(CN(Cc1ccccc1)c1ccccc1)N1CCCC1 (configuration not stated)"
measure = "normalized growth"
quantitative_readout = 0.871

[[record]]
compound = "CCCNC1CCc2nc(N)sc2C1 (configuration not stated)"
measure = "normalized growth"
quantitative_readout = 1.01

[[record]]
compound = "Nc1ccc(N=Nc2ccccc2)c(N)n1"
measure = "normalized growth"
quantitative_readout = 0.984


====

# Experimental Details: chemical genetic growth profiling, strain panel (AID 1159580);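 further: tested at 20 µM; growth read once vehicle control cultures reached saturation at 30 °C; 1 = growth at the plate median or of vehicle wells; lower values mean less growth of the strain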
# Experimental Parameters: S. cerevisiae deletion strains, growth OD, locus YHR087W, strain rtc3, stronger effect = lower value
Hit rate of the full screen: of about 5,500 compounds, about 2,000 (36%) were called active. Not shown: some 18% with an inconclusive outcome. The list shows a part of the results.
Parameter normalized growth: see the listing below.
Measure: normalized growth

[[record]]
chemical_structure = "CCOC(=O)Nc1ccsc1C(=O)OC"
measure = "normalized growth"
quantitative_readout = 1

[[record]]
chemical_structure = "Nc1ccc(N=Nc2ccc(S(N)(=O)=O)cc2)c2ccccc12"
measure = "normalized growth"
quantitative_readout = 0.995

[[record]]
chemical_structure = "CCCc1cnc(N2CCCN(C(=S)Nc3cccnc3)CC2)nc1"
measure = "normalized growth"
quantitative_readout = 0.992


====

# Experimental Details: chemical genetic growth profiling, strain panel (AID 1159580);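 further: tested at 20 µM; growth read once vehicle control cultures reached saturation at 30 °C; 1 = growth at the plate median or of vehicle wells; lower values mean less growth of the strain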
# Experimental Parameters: S. cerevisiae deletion strains, growth OD, locus YNL183C, strain NPR1, stronger effect = lower value
In all, about 5,500 compounds went through this assay and about 2,000 (36%) were called active. About 18% were inconclusive and are not listed. The list shows a part of the results.
Measure: normalized growth

[[record]]
compound = "CCCCN(CCCC)CCCOC(=O)c1ccc(N)cc1"
quantitative_readout = 0.921

[[record]]
compound = "Clc1cccc(Cl)c1NC1=NCCN1"
quantitative_readout = 0.926

[[record]]
compound = "CC1(C)OC(=O)C(=Cc2cccn2-c2ccc(OC(F)(F)F)cc2)C(=O)O1"
quantitative_readout = 0.894

[[record]]
compound = "O=[N+]([O-])c1ccc2oc(C(O)c3ccc(-c4ccccc4)cc3)cc2c1 (stereo not given)"
quantitative_readout = 0.919

[[record]]
compound = "CN1C(C(=O)Nc2ccccn2)=C(O)c2ccccc2S1(=O)=O"
quantitative_readout = 0.919


====

# Experimental Details: chemical genetic growth profiling, strain panel (AID 1159580);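 further: tested at 20 µM; growth read once vehicle control cultures reached saturation at 30 °C; 1 = growth at the plate median or of vehicle wells; lower values mean less growth of the strain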
# Experimental Parameters: S. cerevisiae deletion strains, growth OD, locus YCR088W, strain abp1, stronger effect = lower value
The campaign covered roughly 5,500 compounds. About 2,000 (36%) were called active. About 18% were inconclusive and are not listed. This is one part of the list.
Parameter normalized growth: see the listing below.
Measure: normalized growth

[[record]]
compound = "N[C@@H](CC(=O)N1CCn2c(nnc2C(F)(F)F)C1)Cc1cc(F)c(F)cc1F"
result = "0.984 (inactive)"

[[record]]
compound = "CCCCN1CCCCC1C(=O)Nc1c(C)cccc1C (configuration not stated)"
result = "0.986 (inactive)"

[[record]]
compound = "COC(=O)C(O)c1ccccc1 (configuration not stated)"
result = "0.99 (inactive)"

[[record]]
compound = "C[N+]1(C)C2CC(OC(=O)[C@@H](CO)c3ccccc3)CC1C1OC12 (some centres not stated)"
result = "0.989 (inactive)"

[[record]]
compound = "CC(=O)Oc1c(C)cccc1C(=O)O"
result = "1.02 (inactive)"

[[record]]
compound = "C=C1CCC(OC(C)=O)/C(C)=C/C[C@@H]2[C@@H]1CC2(C)C (some centres not stated)"
result = "1.01 (inactive)"

[[record]]
compound = "COc1cc2occ(-c3ccccc3)c(=O)c2c(OC)c1C"
result = "0.972 (inactive)"

[[record]]
compound = "Cn1c(=O)c2[nH]cnc2n(C)c1=O"
result = "1.02 (inactive)"

[[record]]
compound = "CC(C)(Oc1ccc(C2CC2(Cl)Cl)cc1)C(=O)O (configuration not stated)"
result = "0.997 (inactive)"

[[record]]
compound = "C=C1CCC2C(CC2(C)C)C(=O)CCC1O (configuration not stated)"
result = "0.993 (inactive)"

[[record]]
compound = "COC(=O)C(C)c1ccc(C(=O)c2cccs2)cc1 (configuration not stated)"
result = "1 (inactive)"

[[record]]
compound = "CO[C@@]1(NC(=O)CSCC#N)C(=O)N2C(C(=O)O)=C(CSc3nnnn3C)CSC21 (some centres not stated)"
result = "0.996 (inactive)"

[[record]]
compound = "CO/N=C(\\C(=O)N[C@@H]1C(=O)N2C(C(=O)O)=C(COC(C)=O)CS[C@H]12)c1csc(N)n1"
result = "0.985 (inactive)"

[[record]]
compound = "COc1cc(-c2coc3cc(OC)c(OC)c(OC)c3c2=O)cc(OC)c1OC"
result = "1.01 (inactive)"

[[record]]
compound = "CC(=O)OCC[C@H](C)CCC=C(C)C"
result = "0.989 (inactive)"

[[record]]
compound = "C#CCCCCCCCCCCCC(=O)CC(O)COC(C)=O (configuration not stated)"
result = "0.974 (inactive)"

[[record]]
compound = "O=C(Cn1ccnc1[N+](=O)[O-])NCCO"
result = "1.01 (inactive)"

[[record]]
compound = "C=CCCCCCCCCCCCC(O)CC(O)COC(C)=O (configuration not stated) (tested in a mixture with another compound)"
result = "0.978 (inactive)"

[[record]]
compound = "CC(C(=O)O)c1ccc(C(=O)c2cccs2)cc1 (configuration not stated)"
result = "0.996 (inactive)"

[[record]]
compound = "O=C1OC(c2ccc(O)cc2)(c2ccc(O)cc2)c2ccccc21"
result = "1 (inactive)"

[[record]]
compound = "CCCCCCCCCCCCCCCC(=O)OC1C(SC)OC(C(NC(=O)C2CC(CCC)CN2C)C(C)Cl)C(O)C1O (configuration not stated)"
result = "0.972 (inactive)"

[[record]]
compound = "NC(N)=NS(=O)(=O)c1ccc(N)cc1"
result = "0.992 (inactive)"

